# SYSTEM UNDER TEST: T1, human BCMA expressed on cells (human, UniProt Q02223 1-184)
# T1 construct: the cell line is named under assay; also called wildtype human BCMA
# T1 sequence: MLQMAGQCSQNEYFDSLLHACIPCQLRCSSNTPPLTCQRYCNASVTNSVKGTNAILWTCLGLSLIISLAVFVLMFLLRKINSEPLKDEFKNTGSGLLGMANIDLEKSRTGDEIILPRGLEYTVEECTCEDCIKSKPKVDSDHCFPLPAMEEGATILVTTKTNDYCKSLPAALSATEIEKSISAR
# ASSAY DETAILS: flow cytometry, H929 cells (BCMA-expressing)
Give measured EC50 (read off the curve) for each item. Keep answers brief.

Problem: Can you look up the measured EC50 (read off the curve) of 539-SP7-F4 hIgG1 (antibody, V domains shown, Human-mouse chimeric antibody, human IgG1 format) VH: EVQLQQSGPELVKPGASMKISCKASGYSFTGYIMNWVKQSHGKNLEWIGLINPYNGDSIYNQKFKGKATLTVDKSSSTAYMELFSLTSEDSTVYYCAAGEEFAYWGQGTLVTVSA VL: DIQMTQTSSSLSASLGDRVTISCRASQDISIYLNWFQQKPDGTVKLLIYFTSRLHPGVPSRFSASGSGTDYSLTISHLEHEDIATYFCQQGNTLPRTFGGGTKVELKR for me?
Result: ~0.04 µg/mL

Problem: Here is the next binder: 552-LN1-F4 hIgG1 (antibody, V domains shown, Human-mouse chimeric antibody, human IgG1 format; also called [7]) VH: QIQLVQSGPELKKPGETVKISCMASGYTFTDYSVRWVKQAPGKGLEWMGWINTETGEPTYAHDFKGRFAFSLETSASTAYLQINNLKDEDTSTYFCAISYYYALDYWGHGTSVTVSS VL: DIVLTQSPASLTVSLGQRATISCRASKSVSTSGYNFLHWYQQKPGQPPKLLIYLASNLESGAPARFSGSGSGTDFTLNIHPVEEEDAATYYCQHSRELPRTFGGGTKLEIKR
Result: ~0.2 µg/mL

Problem: Another binder to look at: 538-SP5-B10 hIgG1 (antibody, V domains shown, Human-mouse chimeric antibody, human IgG1 format) VH: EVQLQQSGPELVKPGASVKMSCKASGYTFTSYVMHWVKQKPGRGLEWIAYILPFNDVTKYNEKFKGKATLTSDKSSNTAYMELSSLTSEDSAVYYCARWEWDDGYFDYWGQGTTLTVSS VL: DAVMTQTPLSLPVSLGDQASISCRSSQSLENSNGNTYLNWYLQKPGQSPQLLIYRVSNRFSGVLDRFSGSGSGTDFTLKISRVEAEDLGVYFCLQVSHVPFTFGAGTKLELKR
Result: ~0.03 µg/mL
